Experiment Summary: Cytotoxicity against mouse L929 cells after 72 hrs by trypan blue assay
Assay type: cell-based
Run Parameters: L929 cells
Measure Name: CC50 at 72 h (µM)
Numeric only. Scale: µM

q: GET /values?readout=CC50 at 72 h&item= N=C(N)c1ccc(OCCCCCOc2ccc(C(=N)N)cc2)cc1.O=S(=O)(O)CCO
a: 6.1

---

Experiment Summary: Cytotoxicity against mouse L929 cells assessed as survival rate at 25 to 250 uM after 72 hrs by trypan blue assay
Assay type: cell-based
Run Parameters: read-out: Survival
Measure Name: viability at 72 h, up to 250 µM (%)
// note: answer is a bare numeric in %

q: Consider the molecule CC(C)=CCC[C@@](C)(O)[C@@H]1CC=C(C)CC1 and give its measured viability at 72 h, up to 250 µM.
a: 100

---

Experiment Summary: Cytotoxicity against mouse L929 cells assessed as survival rate at 500 uM after 72 hrs by trypan blue assay
Format: cell-based
Run Parameters: read-out: Survival
Measure Name: viability at 72 h, 500 µM (%)
Quick note: give the figure in %, leave out the unit.

q: Look up viability at 72 h, 500 µM: CC(C)=CCC[C@@](C)(O)[C@@H]1CC=C(C)CC1
a: 86.7

---

Tested on: L929
Experiment Summary: Cytotoxicity against mouse L929 cells after 72 hrs by trypan blue assay
Format: cell-based
Run Parameters: l929, 72 h
Measure Name: CC50 (µM)
Could you give me the number in µM? Just the number is fine.

q: Which CC50 reading was recorded for the sequence MEGLUMINE ANTIMONATE ?
a: 273

---

Experiment Summary: Toxicity in po dosed rat
Type: organism-based
Run Parameters: in vivo
Measure Name: LD50
Hey, just the number and the unit after it is fine.

q: State the recorded LD50 for this entry: CC(C)=CCC[C@@](C)(O)[C@@H]1CC=C(C)CC1
a: 14000 mg/kg
